# subject_of_test: Cq-FABP (Cherax quadricarinatus)
# Sequence (L0I6Z9 entry or part of it): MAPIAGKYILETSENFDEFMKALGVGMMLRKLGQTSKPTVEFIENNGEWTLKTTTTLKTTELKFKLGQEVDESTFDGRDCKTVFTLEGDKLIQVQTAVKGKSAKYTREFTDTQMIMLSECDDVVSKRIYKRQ
# protocol_details: cis-Parinaric acid fluorescence intensity titration and competitive displacement
# Assay type: binding
# condition_parameters: calculated from the IC50 values (Eq. 2) using the fluorescence intensity of cis-parinaric acid; 7 µM CPA, 5 µM Cq-FABP; read-out: Kd,FA
# Excerpt: Cis-parinaric acid and DAUDA were characterized by fluorescence emission in the 380–500 nm region (λmax,em: 410 nm) and in the 480–650 nm region (λmax,em: 540 nm), respectively (excitation wavelengths were set at 320 or 335 nm for cis-parinaric acid or DAUDA, respectively). The fluorescence intensity enhancement upon binding to Cq-FABP was monitored on a Cary-Eclipse spectrofluorimeter as indicated above. All the fluorescence emission intensities were corrected for the inner-filter effect. […]
measure_name: pKd
Note on units: pKd is unitless, being -log10 of a concentration expressed in mol/L.

Ask: What pKd appears in the records for this compound with Cq-FABP (Cherax quadricarinatus)? CC/C=C\C/C=C\C/C=C\C/C=C\C/C=C\C/C=C\CCC(=O)O [DHA, cis-4,7,10,13,16,19-docosahexaenoic acid]
Result: 5.36

Ask: Then this compound: `CCCCCCCCCCCCCCCC(=O)O`
Result: 5.74

Ask: How about `CCCCC/C=C\C/C=C\CCCCCCCC(=O)O` ?
Result: 5.48
